Catalogue of cytotoxicity at 72 h, 10 ug/ml readings, one per entry.
experiment: Cytotoxicity against Vero cells at 10 ug/ml after 72 hrs
Format: cell-based
condition.label: chlorocebus sabaeus, read-out: Inhibition
Write the answer as a number in %, unit excluded.

Consider the following illustrative entries.
>>> experimental_value("COc1ccc(N2CCN/C2=N\\N)cc1")
0
>>> experimental_value("Cc1ccccc1N1CCn2c1n[nH]c(=O)c2=O")
0

I have this molecule here, Cc1cccc(N2CCN/C2=N\N)c1C , and I need its recorded cytotoxicity at 72 h, 10 ug/ml.
16

I have this molecule here, N/N=C1\NCCN1c1cccc(Cl)c1 , and I need its recorded cytotoxicity at 72 h, 10 ug/ml.
0

I have this molecule here, Cc1cccc(N2CCn3c2n[nH]c(=O)c3=O)c1C , and I need its recorded cytotoxicity at 72 h, 10 ug/ml.
18

I have this molecule here, Cc1ccc(N2CCn3c2n[nH]c(=O)c3=O)cc1 , and I need its recorded cytotoxicity at 72 h, 10 ug/ml.
0

====

Tested on: A549
experiment: Anticancer activity against human A549 cells at 50 ug/ml after 72 hrs
Format: functional
condition.label: A549, 72 h
experimental.readout: inhibition at 50 µg/mL (%)
Write the answer as a number in %, unit excluded.

Consider the following illustrative entries.
>>> experimental_value("Cc1ccc(N2CCn3c2n[nH]c(=O)c3=N)cc1")
38
>>> experimental_value("N=c1c(=O)[nH]nc2n1CCN2c1ccccc1Cl")
16
>>> experimental_value("O=c1[nH]nc2n(c1=O)CCN2c1ccc(Cl)cc1")
15
>>> experimental_value("O=c1[nH]nc2n(c1=O)CCN2c1ccccc1")
17
>>> experimental_value("Cc1ccccc1N1CCn2c1n[nH]c(=O)c2=O")
29
>>> experimental_value("N=c1c(=O)[nH]nc2n1CCN2c1ccc(Cl)cc1")
27

I have this compound here, O=c1[nH]nc2n(c1=O)CCN2c1cccc(Cl)c1 , and I need its recorded inhibition at 50 µg/mL.
0

I have this compound here, COc1ccc(N2CCn3c2n[nH]c(=O)c3=O)cc1 , and I need its recorded inhibition at 50 µg/mL.
0

====

Tested on: Escherichia coli
experiment: Antibacterial activity against Escherichia coli after 24 hrs by microdilution broth method
Type: functional
Catalogue of MIC readings, one per entry.
Write the answer as a number in µM, unit excluded.

Consider the following illustrative entries.
>>> experimental_value("Cc1cccc(N2CCN/C2=N\\N)c1C")
18.8
>>> experimental_value("CC1(C)S[C@@H]2[C@H](NC(=O)[C@H](N)c3ccccc3)C(=O)N2[C@H]1C(=O)O")
35.8
>>> experimental_value("COc1ccc(N2CCN/C2=N\\N)cc1")
15

Value wanted: MIC (Escherichia coli) of entry N/N=C1\NCCN1c1ccccc1
41.1

Value wanted: MIC (Escherichia coli) of entry O=C(N[C@H](CO)[C@H](O)c1ccc([N+](=O)[O-])cc1)C(Cl)Cl
12.1

Value wanted: MIC (Escherichia coli) of entry N/N=C1\NCCN1c1ccc(Cl)cc1
36.9

Value wanted: MIC (Escherichia coli) of entry Cc1ccccc1N1CCN/C1=N\N
15.7

Value wanted: MIC (Escherichia coli) of entry COc1ccccc1N1CCN/C1=N\N
29.9

====

Tested on: T47D
experiment: Cytotoxicity against human T47D cells at 50 ug/ml after 72 hrs
Format: functional
experimental.readout: inhibition at 50 µg/mL (%)
Write the answer as a number in %, unit excluded.

Consider the following illustrative entries.
>>> experimental_value("Cc1ccc(N2CCn3c2n[nH]c(=O)c3=N)cc1")
0
>>> experimental_value("O=c1[nH]nc2n(c1=O)CCN2c1cccc(Cl)c1")
0

Value wanted: inhibition at 50 µg/mL (T47D) of entry Cc1cccc(N2CCn3c2n[nH]c(=O)c3=O)c1C
22

Value wanted: inhibition at 50 µg/mL (T47D) of entry Cc1ccc(N2CCN/C2=N\N)cc1
17

Value wanted: inhibition at 50 µg/mL (T47D) of entry N=c1c(=O)[nH]nc2n1CCN2c1ccccc1Cl
0

Value wanted: inhibition at 50 µg/mL (T47D) of entry N=c1c(=O)[nH]nc2n1CCN2c1ccc(Cl)cc1
27

Value wanted: inhibition at 50 µg/mL (T47D) of entry O=c1[nH]nc2n(c1=O)CCN2c1ccccc1
0

====

experiment: Cell viability in HSF cells at 1 uM after 24 hrs by MTT assay
Type: cell-based, Fibroblast
condition.label: human, read-out: Activity
Catalogue of viability at 24 h, 1 µM readings, one per entry.
Write the answer as a number in %, unit excluded.

Consider the following illustrative entries.
>>> experimental_value("N=c1c(=O)[nH]nc2n1CCN2c1ccccc1")
101
>>> experimental_value("N=c1c(=O)[nH]nc2n1CCN2c1ccccc1Cl")
100
>>> experimental_value("O=c1[nH]nc2n(c1=O)CCN2c1ccc(Cl)cc1")
99
>>> experimental_value("O=c1[nH]nc2n(c1=O)CCN2c1ccc(Cl)c(Cl)c1")
109

// next item, viability at 24 h, 1 µM requested
I have this compound here, Cc1ccc(N2CCn3c2n[nH]c(=O)c3=O)cc1 , and I need its recorded viability at 24 h, 1 µM.
93

====

Tested on: HeLa
experiment: Cytotoxicity against human HeLa cells at 10 ug/ml after 72 hrs
Type: functional
experimental.readout: inhibition at 10 µg/mL (%)
Write the answer as a number in %, unit excluded.

Consider the following illustrative entries.
>>> experimental_value("Cc1cccc(N2CCN/C2=N\\N)c1C")
8
>>> experimental_value("Cc1ccc(N2CCn3c2n[nH]c(=O)c3=O)cc1")
0
>>> experimental_value("COc1ccccc1N1CCn2c1n[nH]c(=O)c2=O")
5
>>> experimental_value("N=c1c(=O)[nH]nc2n1CCN2c1ccccc1Cl")
0
>>> experimental_value("COc1ccc(N2CCn3c2n[nH]c(=O)c3=O)cc1")
6

I have this compound here, N/N=C1\NCCN1c1ccccc1 , and I need its recorded inhibition at 10 µg/mL.
6

====

System: Staphylococcus epidermidis
experiment: Antibacterial activity against Staphylococcus epidermidis after 24 hrs by microdilution broth method
Format: functional
experimental.readout: MIC (µM)
Write the answer as a number in µM, unit excluded.

Consider the following illustrative entries.
>>> experimental_value("Cc1cccc(N2CCN/C2=N\\N)c1C")
18.8
>>> experimental_value("O=C(N[C@H](CO)[C@H](O)c1ccc([N+](=O)[O-])cc1)C(Cl)Cl [CHLORAMPHENICOL]")
6
>>> experimental_value("Cc1ccccc1N1CCN/C1=N\\N")
31.4
>>> experimental_value("COc1ccccc1N1CCN/C1=N\\N")
37.4
>>> experimental_value("CC1(C)S[C@@H]2[C@H](NC(=O)[C@H](N)c3ccccc3)C(=O)N2[C@H]1C(=O)O [AMPICILLIN]")
71.5

I have this compound here, N/N=C1\NCCN1c1ccccc1 , and I need its recorded MIC.
41.1

I have this compound here, N/N=C1\NCCN1c1ccc(Cl)cc1 , and I need its recorded MIC.
18.4

I have this compound here, COc1ccc(N2CCN/C2=N\N)cc1 , and I need its recorded MIC.
18.7

====

Catalogue of LD50 readings, one per entry.
experiment: Acute toxicity in mouse
Assay type: organism-based
condition.label: in vivo
Write the answer as a number in mg/kg, unit excluded.

>>> experimental_value("COc1ccccc1N1CCn2c1n[nH]c(=O)c2=O")
1100
>>> experimental_value("Cc1ccc(N2CCn3c2n[nH]c(=O)c3=O)cc1")
1800
>>> experimental_value("COc1ccc(N2CCn3c2n[nH]c(=O)c3=O)cc1")
1500

I have this compound here, O=c1[nH]nc2n(c1=O)CCN2c1ccccc1 , and I need its recorded LD50.
1400

====

experiment: Cytotoxicity against human LS180 cells at 50 ug/ml after 72 hrs
Format: functional
condition.label: LS180, 72 h
Catalogue of inhibition at 50 µg/mL readings, one per entry.

Consider the following illustrative entries.
>>> experimental_value("N=c1c(=O)[nH]nc2n1CCN2c1ccc(Cl)cc1")
"5%"
>>> experimental_value("Cc1ccccc1N1CCn2c1n[nH]c(=O)c2=O")
"0%"
>>> experimental_value("O=c1[nH]nc2n(c1=O)CCN2c1ccc(Cl)cc1")
"35%"
>>> experimental_value("O=c1[nH]nc2n(c1=O)CCN2c1cccc(Cl)c1")
"0%"
>>> experimental_value("Cc1ccc(N2CCN/C2=N\\N)cc1")
"15%"
>>> experimental_value("N=c1c(=O)[nH]nc2n1CCN2c1ccccc1")
"1%"
>>> experimental_value("N=c1c(=O)[nH]nc2n1CCN2c1cccc(Cl)c1")
"1%"
>>> experimental_value("Cc1cccc(N2CCn3c2n[nH]c(=O)c3=O)c1C")
"0%"

I have this molecule here, N=c1c(=O)[nH]nc2n1CCN2c1ccccc1Cl , and I need its recorded inhibition at 50 µg/mL.
2%

I have this molecule here, N/N=C1\NCCN1c1cccc(Cl)c1 , and I need its recorded inhibition at 50 µg/mL.
0%

I have this molecule here, Cc1cccc(N2CCN/C2=N\N)c1C , and I need its recorded inhibition at 50 µg/mL.
0%

I have this molecule here, N/N=C1\NCCN1c1ccccc1 , and I need its recorded inhibition at 50 µg/mL.
0%

I have this molecule here, O=c1[nH]nc2n(c1=O)CCN2c1ccccc1 , and I need its recorded inhibition at 50 µg/mL.
12%

Measured values drawn from ChEMBL document CHEMBL1147867 for this set.
